# Test Summary: Plasma protein binding, equilibrium dialysis, human
# Type: in vitro ADME
# Run Conditions: plasma (10% plasma, extrapolated to 100% plasma), 18 hours at 37° C.
Reported Metric: fraction unbound at 18 h, 10 µM

// query fraction unbound at 18 h, 10 µM value for entry CCc1c(C)nn2c(N)c(C#N)c(NCCc3ccn(C4(CO)CC4)n3)nc12
0.0913

[P] CCc1c(C)nn2c(N)c(C#N)c(NCCc3ccn(C4COCC4CO)n3)nc12 (single isomer, unassigned; (-)) [Example 122b]
[Q] Cc1cccc(CCNc2nc3c(C)c(C)nn3c(N)c2C#N)n1
// select label with min value of measured fraction unbound at 18 h, 10 µM from [ P , Q ] I would appreciate it if you answered with the label of your choice.
Q
(Q: 0.05, P: 0.117)

====

# Test Summary: Pharmacokinetic study in rats
# Assay type: in vivo, male Sprague-Dawley (SD) rats
# Run Conditions: male, Sprague-Dawley, plasma; Rat, IV bolus, Table 6; read-out: T1/2 (IV bolus) (converted)
Reported Metric: half-life (min)

// query half-life value for entry CCc1c(C)nn2c(N)c(C#N)c(NCCc3ccn(C4COCC4CO)n3)nc12 (single isomer, unassigned; (-)) [Example 122b]
19.8

[A] CCc1c(C)nn2c(N)c(C#N)c(NCCc3ccn(C4(CO)CC4)n3)nc12 [Example 39]
[B] Cc1cccc(CCNc2nc3c(C)c(C)nn3c(N)c2C#N)n1 [Example 13]
// select label with min value of measured half-life from [ A , B ] I would appreciate it if you answered with the label of your choice.
B

====

# Test Summary: Pharmacokinetic study in dogs
# Format: in vivo, male Beagle dogs
# Run Conditions: male, Beagle, plasma, iv; Dog, i.v, 3 mg/kg
Reported Metric: clearance (mL/min/kg)

[P] Cc1cccc(CCNc2nc3c(C)c(C)nn3c(N)c2C#N)n1 [Example 13]
[Q] CCc1c(C)nn2c(N)c(C#N)c(NCCc3ccn(C4(CO)CC4)n3)nc12 [Example 39]
Which one would you say has the larger clearance value: P , or Q ? I would appreciate it if you answered with the label of your choice.
Q
(Q: 52 mL/min/kg, P: 33 mL/min/kg)

====

# Test Summary: Pharmacokinetic study in mice
# Assay type: in vivo, CD1 mice
# Run Conditions: CD1, mouse, plasma, iv, i.v, 15 mg/kg
Reported Metric: half-life (min)
Expressed in min, but write only the number.

// query half-life value for entry CCc1c(C)nn2c(N)c(C#N)c(NCCc3ccn(C4(CO)CC4)n3)nc12
54

====

# Test Summary: Pharmacokinetic study in mice
# Type: in vivo, CD1 mice
# Run Conditions: CD1, mouse, plasma, po, 30 mg/kg, p.o, 30 mg/kg, read-out: Cmax (head Co*/)
# Protocol: Intravenous (i.v) and Oral formulations for pharmacokinetic (PK) studies was formulated in different vehicles and excipients to achieve the desirable solubility for intravenous and Oral routes of administration. Appropriate amount of the test compound was weighed and dissolved in required volume of the vehicles, followed by vertexing for a few seconds to dissolve the compound. […] Plasma samples were analysed for a fit-for purpose LC-MS/MS method with a lower limit of quantification. […]
Reported Metric: Cmax (ng/mL)

[P] Cc1cccc(CCNc2nc3c(C)c(C)nn3c(N)c2C#N)n1
[Q] CCc1c(C)nn2c(N)c(C#N)c(NCCc3ccn(C4(CO)CC4)n3)nc12
// select label with min value of measured Cmax from [ P , Q ] I would appreciate it if you answered with the label of your choice.
P
